system: Plasmodium falciparum chloroquine-resistant strain W2; assay: microbe, parasite or virus in culture; assay type: cell-based; details: growth inhibition, chloroquine-resistant strain W2, 66 h incubation
# Strain W2 IC50 per record follows
// return numeric value only (unit: ng/mL, not printed)

Recorded Strain W2 IC50, per entry:
| Compound | Measurement |
| --- | --- |
| CC(=O)O[C@H]1CC2C(C3CC[C@H](C(C)CCC(N)=O)[C@]31C)[C@H](OC(C)=O)C[C@@H]1CC3(CC[C@]21C)OOC1(CCC(c2ccccc2)CC1)OO3 (single isomer, unassigned) [Compound 1C45] | 7.36 |
| CCCNC(=O)CCC(C)[C@H]1CCC2C3C(C[C@H](OC(C)=O)[C@@]21C)[C@@]1(C)CCC2(C[C@H]1C[C@H]3OC(C)=O)OOC1(CCC(CC)CC1)OO2 (single isomer, unassigned) [28/1C38] | 3.12 |

State the recorded Strain W2 IC50 for this entry: CC(=O)O[C@H]1CC2C(C3CC[C@H](C(C)CCC(N)=O)[C@]31C)[C@H](OC(C)=O)C[C@@H]1CC3(CC[C@]21C)OOC1(CCC(C)CC1)OO3 (stereo partly drawn)
8.94
